Consider the following compounds and their measured IC50 readings.
- System: 138582-337-R-J1-PDC spheroids with HUVEC/MSC, viability
- Test method notes: Anticancer human tumor 138582-337-R-J1-PDC patient-derived Merkel cell tumor cell line growth inhibition [IpAb]
- Condition parameters: curve of first compound; second compound 1 µM
Numeric answer only, unit nM assumed.

Check out these entries, answers already filled in.
CC(C)(C)c1cnc(CSc2cnc(NC(=O)C3CCNCC3)s2)o1 + CC(C)NCC(C(=O)N1CCN(c2ncnc3c2C(C)CC3O)CC1)c1ccc(Cl)cc1 ... 52.9
Cn1ncc(Cl)c1-c1cc(C(=O)NC(CN)Cc2cccc(F)c2)sc1Cl (stereo unspecified) + CC(C)NCC(C(=O)N1CCN(c2ncnc3c2C(C)CC3O)CC1)c1ccc(Cl)cc1 ... 3320
CC(C)n1nc(-c2ccc3oc(N)nc3c2)c2c(N)ncnc21 + CCN1CCN(Cc2ccc(Nc3ncc(F)c(-c4cc(F)c5nc(C)n(C(C)C)c5c4)n3)nc2)CC1 ... 69.4
Cn1cnc2c(F)c(Nc3ccc(Br)cc3Cl)c(C(=O)NOCCO)cc21 + CCN1CCN(Cc2ccc(Nc3ncc(F)c(-c4cc(F)c5nc(C)n(C(C)C)c5c4)n3)nc2)CC1 ... 1880
Cc1nc(NC(=O)N2CCCC2C(N)=O)sc1-c1ccnc(C(C)(C)C(F)(F)F)c1 (stereo unspecified) + CCN1CCN(Cc2ccc(Nc3ncc(F)c(-c4cc(F)c5nc(C)n(C(C)C)c5c4)n3)nc2)CC1 ... 462

IN: Tell me measured IC50 for CC(C)n1nc(-c2ccc3oc(N)nc3c2)c2c(N)ncnc21 + CC(C)NCC(C(=O)N1CCN(c2ncnc3c2C(C)CC3O)CC1)c1ccc(Cl)cc1 please.
OUT: 1.97

IN: Give the reported value of IC50 for this record: CCCS(=O)(=O)Nc1ccc(F)c(C(=O)c2c[nH]c3ncc(-c4ccc(Cl)cc4)cc23)c1F + CC(C)NCC(C(=O)N1CCN(c2ncnc3c2C(C)CC3O)CC1)c1ccc(Cl)cc1
OUT: 4180

====

- System: 138582-337-R-J1-PDC spheroids with HUVEC/MSC, viability
- Test method notes: Anticancer human tumor 138582-337-R-J1-PDC cell line growth inhibition [IpAb];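 also: spheroids exposed to compounds for seven days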;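 as to viability, T/C: 100% = DMSO vehicle control viability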
- Condition parameters: second compound 0.1 µM; first compound 3.16 µM; stronger effect = lower value
Reported values of viability, T/C for individual entries
Write the answer as a number in %, unit excluded.

Before answering, review these 2 worked examples.
CC1(C)CCC(CN2CCN(c3ccc(C(=O)NS(=O)(=O)c4ccc(NCC5CCOCC5)c([N+](=O)[O-])c4)c(Oc4cnc5[nH]ccc5c4)c3)CC2)=C(c2ccc(Cl)cc2)C1 + CC(C)NCC(C(=O)N1CCN(c2ncnc3c2C(C)CC3O)CC1)c1ccc(Cl)cc1 ... 74.5
Cc1nc(NC(=O)N2CCCC2C(N)=O)sc1-c1ccnc(C(C)(C)C(F)(F)F)c1 (stereo not drawn) + CCN1CCN(Cc2ccc(Nc3ncc(F)c(-c4cc(F)c5nc(C)n(C(C)C)c5c4)n3)nc2)CC1 ... 35.2

Turning now to a further compound:
IN: Complete the entry with viability, T/C for Cn1nccc1Nc1nccc(-c2ccn(C(CO)c3ccc(Cl)c(F)c3)c(=O)c2)n1 (stereo not drawn) + CC(C)NCC(C(=O)N1CCN(c2ncnc3c2C(C)CC3O)CC1)c1ccc(Cl)cc1
OUT: 108
